Cited source for all entries: PubChem BioAssay AID226

Test system: B6C3F1 mice, intracerebral ependymoblastoma, median survival T/C
Assay: NCI In Vivo Anticancer Drug Screen. Data for tumor model Ependymoblastoma (intracerebral) in B6C3F1 mice
Conditions: endpoint: median survival time; dose: 50.0 mg/kg/injection; schedule: Q01DX005 (ip); vehicle: Klucel (hydroxypropylcellulose) (HPC); higher = longer survival
Toxic doses and inconclusive results are not listed.
The following compounds are listed with their measured T/C values.

What value of measured T/C is listed for COC1C(CO)OC(n2cnc3c(=S)nc(N)[nH]c32)C1O (stereo not given) ?
119 % of control

***
What value of measured T/C is listed for C/C(=C\c1ccccc1)[N+](=O)[O-] ?
91 % of control

What value of measured T/C is listed for Nc1ccn(C2OC(COC(=O)C34CC5CC(CC(C5)C3)C4)C(O)C2O)c(=O)n1 (stereo not given) ?
109 % of control

What value of measured T/C is listed for COc1ccc2cc1Oc1ccc(cc1)C[C@H]1c3cc(c(OC)cc3CCN1C)Oc1c(OC)c(OC)cc3c1[C@H](C2)N(C)CC3 ?
100 % of control

What value of measured T/C is listed for CN(C)/N=N/c1nc[nH]c1C(N)=O ?
120 % of control
